# assay.name: Cohort 2 week 1 intensive PK, DOR FDC once daily
# Assay type: in vivo, adolescents with HIV-1
# run.conditions: human, plasma, oral
reported.endpoint: Tmax

Record request: Tmax value, item Cn1c(Cn2ccc(C(F)(F)F)c(Oc3cc(Cl)cc(C#N)c3)c2=O)n[nH]c1=O
~2 h

---

# assay.name: Cohort 2 week 1 intensive PK, DOR FDC once daily
# Format: in vivo, adolescents with HIV-1
# run.conditions: human, plasma, po, 100 mg
reported.endpoint: Tmax (h)
Report only the number, with the unit h understood.

Returns the measured Tmax for the input molecule. Input: Cn1c(Cn2ccc(C(F)(F)F)c(Oc3cc(Cl)cc(C#N)c3)c2=O)n[nH]c1=O
1.95

---

# assay.name: Cohort 1 intensive PK after a single 100 mg doravirine tablet
# Set-up: species or system adolescents with HIV-1
# run.conditions: human, in vivo, po
reported.endpoint: Vd/F (L)
# value in L; strip the unit string

Consider the molecule Cn1c(Cn2ccc(C(F)(F)F)c(Oc3cc(Cl)cc(C#N)c3)c2=O)n[nH]c1=O [Doravirine] and give its measured Vd/F.
115
